Documented IC50 across a set of compounds
Target Or Test System: G-protein coupled receptor 55 (Homo sapiens, UniProt Q9Y2T6)
Sequence (Q9Y2T6 whole entry, the tested form may be a part): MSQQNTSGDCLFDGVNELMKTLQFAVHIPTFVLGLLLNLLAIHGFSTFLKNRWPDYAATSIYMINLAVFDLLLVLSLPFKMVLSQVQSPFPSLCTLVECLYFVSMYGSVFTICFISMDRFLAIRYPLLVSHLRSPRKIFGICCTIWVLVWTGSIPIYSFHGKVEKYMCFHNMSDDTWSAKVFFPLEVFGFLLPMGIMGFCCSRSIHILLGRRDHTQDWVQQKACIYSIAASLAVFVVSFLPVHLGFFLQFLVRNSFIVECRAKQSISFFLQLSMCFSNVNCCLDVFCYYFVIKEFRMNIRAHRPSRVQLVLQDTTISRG
Protocol: Antagonist activity against human GPR55 expressed in CHO cells assessed as reduction in LPI-induced beta-arrestin recruitment by beta-galactosidase enzyme fragment complementation method

These recorded examples may help you get a feel for the data.
O=C1/C(=C/c2ccc(-c3ccccc3)cc2)N=C2SCCCCN12: > 10 µM
CC(C)c1ccc(/C=C2\N=C3SCCCN3C2=O)cc1: > 10 µM

**Q:** Please list IC50 recorded for the compound O=C1/C(=C/c2cccc(OCc3ccccc3)c2)N=C2SCCCCN12
**A:** > 10 µM

**Q:** Please list IC50 recorded for the compound COc1ccccc1/C=C1\N=C2SCCCN2C1=O
**A:** > 10 µM

**Q:** Please list IC50 recorded for the compound O=C1N=C2SCCCCN2C1(c1ccccc1)c1ccccc1
**A:** > 10 µM

**Q:** Please list IC50 recorded for the compound O=C1/C(=C/c2cccc(OCc3ccc(Cl)cc3Cl)c2)N=C2SCCCN12
**A:** > 10 µM

**Q:** Please list IC50 recorded for the compound O=C1/C(=C/c2ccc(Cl)cc2Cl)N=C2SCCCN12
**A:** 6.76 µM

**Q:** Please list IC50 recorded for the compound CCOC(=O)C1CN2C(=NC(=O)C2(c2ccccc2)c2ccccc2)S1 (configuration not stated)
**A:** > 10 µM

**Q:** Please list IC50 recorded for the compound O=C1/C(=C/C=C/c2ccccc2)N=C2SCCCN12
**A:** > 10 µM

**Q:** Please list IC50 recorded for the compound O=C1/C(=C/c2cccc(OCc3ccccc3)c2)N=C2SCCCN12
**A:** > 10 µM

**Q:** Please list IC50 recorded for the compound O=C1N=C2SCCCN2/C1=C\C=C\c1ccccc1
**A:** > 10 µM

**Q:** Please list IC50 recorded for the compound O=C1/C(=C/c2ccccc2Cl)N=C2SCCCN12
**A:** 5.09 µM

----------
Target Or Test System: N-arachidonyl glycine receptor (Homo sapiens) (UniProt Q14330)
Sequence (Q14330 whole entry, the tested form may be a part): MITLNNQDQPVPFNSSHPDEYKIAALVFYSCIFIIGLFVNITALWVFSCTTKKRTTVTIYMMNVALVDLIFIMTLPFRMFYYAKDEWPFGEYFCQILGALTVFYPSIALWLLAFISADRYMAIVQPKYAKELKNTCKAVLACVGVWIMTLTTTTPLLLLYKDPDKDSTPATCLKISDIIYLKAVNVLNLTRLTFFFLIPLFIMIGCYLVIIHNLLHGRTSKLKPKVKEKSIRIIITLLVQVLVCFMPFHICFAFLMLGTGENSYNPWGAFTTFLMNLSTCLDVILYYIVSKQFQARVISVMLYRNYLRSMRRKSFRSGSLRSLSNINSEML
Protocol: Antagonist activity against human GPR18 expressed in CHO cells assessed as reduction in delta9-THC-induced beta-arrestin recruitment at 10 uM by beta-galactosidase enzyme fragment complementation method
Type: cell-based
Assay Endpoint: inhibition (%)
Expressed in %, but write only the number.

O=C1/C(=C/c2cccc(OCc3ccc(F)cc3)c2)N=C2SCCCCN12: 5

**Q:** Please list inhibition recorded for the compound CN(C)c1ccc(/C=C2\N=C3SCCCN3C2=O)cc1
**A:** 13

----------
Target Or Test System: G-protein coupled receptor 35 (Homo sapiens, UniProt Q9HC97)
Sequence (Q9HC97 whole entry, the tested form may be a part): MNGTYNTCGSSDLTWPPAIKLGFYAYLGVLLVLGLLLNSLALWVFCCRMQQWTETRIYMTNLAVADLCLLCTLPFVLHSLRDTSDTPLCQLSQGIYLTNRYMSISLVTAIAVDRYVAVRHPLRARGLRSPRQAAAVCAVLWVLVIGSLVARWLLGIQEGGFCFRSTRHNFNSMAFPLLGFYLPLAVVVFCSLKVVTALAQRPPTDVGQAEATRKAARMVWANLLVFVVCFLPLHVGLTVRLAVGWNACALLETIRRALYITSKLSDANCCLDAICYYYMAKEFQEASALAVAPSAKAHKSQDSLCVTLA
Protocol: Agonist activity at human GPR35 assessed as induction of beta-arrestin recruitment by beta-galactosidase enzyme fragment complementation method
Documented EC50 across a set of compounds

O=C1/C(=C/c2cccc(OCc3cccc(Cl)c3)c2)N=C2SCCCCN12: > 10 µM
O=C1/C(=C/c2ccccc2)N=C2SCCCN12: > 10 µM
O=C1/C(=C/c2cccc(F)c2F)N=C2SCCCN12: > 10 µM
O=C1/C(=C/c2ccccc2Cl)N=C2SCCCN12: > 10 µM
O=C1/C(=C/c2cccc(OCc3ccc(Cl)cc3)c2)N=C2SCCCCN12: > 10 µM

**Q:** Please list EC50 recorded for the compound COc1ccc(/C=C2\N=C3SCCCN3C2=O)c(OC)c1
**A:** > 10 µM

**Q:** Please list EC50 recorded for the compound O=C1/C(=C/c2cccc(OCc3ccc(Cl)cc3)c2)N=C2SCCCN12
**A:** > 10 µM
